# measurement-protocol: cytotoxicity against Vero cells
# Type: cell-based, African green monkey
# measurement-parameters: african green monkey, vero cells; read-out: Cytotoxicity CTD50
parameter-measured: CC50 (µg/mL)
Only the number, expressed in µg/mL, is required.

Qu. Output CC50 of COc1ccc(C=C2C(=O)N(C(C)=O)C(=O)N2C(C)=O)cc1OC [Example 32]
Ans. 33
